All figures here come from PubChem BioAssay AID2540.

- system-tested: Sentrin-specific protease 8 (Homo sapiens)
- assay-remarks: SENP8 protease inhibitors, primary screen, biochemical, luminescence (AID 2540)
- recorded-conditions: purified SENP8, Z-RLRGG-aminoluciferin cleavage, at 10 µM, active compounds read high
In all, about 330,000 compounds went through this assay and about 4,100 (1.2%) were called active. Shown is part of a subset that was picked to be rich in actives.
Entries annotated with measured inhibition

- test-smiles: "COc1cc(Cn2c(N)c(C(=O)NCc3ccco3)c3nc4ccccc4nc32)cc(OC)c1OC"
  inhibition, %: 90.9
- test-smiles: "COc1ccccc1CN1CCN(C(=O)Cc2ccccc2)CC1"
  inhibition, %: -9.12
- test-smiles: "CCOC(=O)c1c(N)n(CCN2CCOCC2)c2nc3ccccc3nc12"
  inhibition, %: 2.3
- test-smiles: "CCOC(=O)c1c(N)n(Cc2ccccc2)c2nc3ccccc3nc12"
  inhibition, %: 9.31
- test-smiles: "COc1cccc(-c2nc3ccc(N4CCN(C)CC4)cc3[nH]2)c1"
  inhibition, %: 57.4
- test-smiles: "CN1CCN(c2cc(N3CCNCC3)ccc2[N+](=O)[O-])CC1"
  inhibition, %: 2.96
